# Test system: Human Peripheral Blood Mononuclear Cells (PBMC) or Enriched Adherent Mononuclear Cells
# experimentalDetails: Cell assay: IL-1β assay with human PBMC or enriched adherent mononuclear cells
# Format: cell-based
# conditionParameters: Homo sapiens, PBMC, Example 2 table; LPS-stimulated cells, mature IL-1β in supernatant by ELISA
Non-standard residues stand in square brackets, D forms with d. Residues, ends and D or L forms follow the SMILES beside them. Pro(4R-OPh) = O=C(O)[C@@H]1C[C@@H](Oc2ccccc2)CN1
property: pIC50
Keep it numeric: pIC50 is minus log10 of the concentration in mol/L.

Q) State its pIC50 on Human Peripheral Blood Mononuclear Cells (PBMC) or Enriched Adherent Mononuclear Cells: C[C@H](NC(=O)c1cnc(Cc2ccccc2)[nH]1)C(=O)N[C@H](C=O)CC(=O)O [Compound 33c]
A) 4.70

Q) State its pIC50 on Human Peripheral Blood Mononuclear Cells (PBMC) or Enriched Adherent Mononuclear Cells: CC(=O)N[C@@H](Cc1ccc(O)cc1)C(=O)N[C@H](C(=O)N1C[C@H](Oc2ccccc2)C[C@H]1C(=O)N[C@H](C=O)CC(=O)O)C(C)C [I] (Ac-YV[Pro(4R-OPh)]D-aldehyde)
A) 5.59
